The entries below come with measured IC50 values attached.
biological target: SARS-CoV-2 3CL-protease (Severe acute respiratory syndrome coronavirus 2); assay: SARS-CoV-2 3C-like (3CL) protease fluorescence assay (FRET); assay type: biochemical; settings: recombinant SARS-CoV-2 3CL-protease 10 nM, 30 min preincubation, run in duplicate; read-out: FRET IC50

| compound | IC50 |
| --- | --- |
| Cc1cccnc1NC(=O)C(=O)N[C@@H](CC(C)(C)C)C(=O)N1C[C@]2(C[C@H]1C#N)C(=O)Nc1ccccc12 [Example 126] | < 100 nM |
| N#C[C@@H]1C[C@@]2(CN1C(=O)[C@H](CC1CC1)NC(=O)C(=O)Nc1c(C(F)(F)F)cncc1C(F)(F)F)C(=O)Nc1ccccc12 [Example 206] | < 100 nM |
| CC(C)(C)C[C@H](NC(=O)C(=O)Nc1c(C#N)cccc1C(F)(F)F)C(=O)N1C[C@]2(C[C@H]1C#N)C(=O)Nc1ccccc12 [Example 145] | 100 to 1000 nM |
| CC(C)C[C@H]1C(=O)N2C[C@]3(C[C@H]2C#N)C(=O)Nc2ccc(cc23)/C=C\CCNC(=O)C(=O)N1C [Example 214] | 100 to 1000 nM |
| CC(C)(C)C[C@H](NC(=O)C(=O)Nc1ccc(C(F)(F)F)cc1C(F)(F)F)C(=O)N1C[C@]2(C[C@H]1C#N)C(=O)Nc1ccccc12 [Example 166] | < 100 nM |

Proceeding to the next compound to report its IC50.
Requested read-out: IC50. Entry: CC(C)(C)C[C@H](NC(=O)C(=O)N[C@]12CC[C@H](C1)C2)C(=O)N1C[C@]2(C[C@H]1C#N)C(=O)Nc1ccccc12 [Example 136]
< 100 nM
